# measured target: CDK4 (Homo sapiens, UniProt P11802)
# Construct: purchased Carna Company
# Sequence (P11802 whole entry): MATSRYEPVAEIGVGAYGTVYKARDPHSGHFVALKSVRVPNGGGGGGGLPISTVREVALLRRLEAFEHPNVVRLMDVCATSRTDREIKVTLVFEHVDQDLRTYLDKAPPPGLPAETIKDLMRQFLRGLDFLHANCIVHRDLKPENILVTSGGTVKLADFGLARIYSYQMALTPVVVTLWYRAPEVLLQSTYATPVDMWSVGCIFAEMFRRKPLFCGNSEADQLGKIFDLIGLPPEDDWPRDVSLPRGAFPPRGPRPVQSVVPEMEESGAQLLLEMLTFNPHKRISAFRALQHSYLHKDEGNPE
# Sequence (P30281 whole entry partner): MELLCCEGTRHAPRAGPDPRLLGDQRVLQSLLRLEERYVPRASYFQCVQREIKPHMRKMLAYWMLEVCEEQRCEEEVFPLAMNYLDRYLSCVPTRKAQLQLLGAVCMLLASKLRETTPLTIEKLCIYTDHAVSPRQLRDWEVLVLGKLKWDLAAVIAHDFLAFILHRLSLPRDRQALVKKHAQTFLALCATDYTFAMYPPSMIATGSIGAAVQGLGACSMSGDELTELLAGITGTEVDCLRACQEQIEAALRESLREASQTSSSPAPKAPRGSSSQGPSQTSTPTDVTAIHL
# experimental protocol: CDK enzymology experiment in vitro, capillary mobility shift assay (MSA)
# Format: biochemical
# experimental parameters: read-out: CDK4 (nM) inhibitory IC50
result type: IC50

Worked examples, 5 compounds total:
compound	IC50
N#Cc1cnc(NC2CCN(S(=O)(=O)c3ccc(-c4cn[nH]c4)cc3)CC2)nc1N[C@H]1CCOC1 [Compound 105]	10 to 50 nM
C[C@H]1COCCN1c1nc(NC2CCN(S(=O)(=O)c3cnn(C)c3)CC2)ncc1C#N [Compound 75]	10 to 50 nM
CN1CCN(c2ccc(S(=O)(=O)N3CCC(Nc4ncc(C(F)(F)F)c(O[C@H]5CCOC5)n4)CC3)cc2)CC1 [Compound 204]	0.5 to 2.5 nM
Cn1cc(S(=O)(=O)N2CCC(Nc3ncc(C#N)c([S+]([O-])C4CCCC4)n3)CC2)cn1 (stereo not shown) [Compound 98]	10 to 50 nM
CN1CC[C@H](Oc2nc(NC3CCN(S(=O)(=O)c4cnn(C)c4)CC3)ncc2C#N)C1 [Compound 74]	50 to 100 nM

IN: Return value of IC50 for input O=S(=O)(c1ccc(N2CCNCC2)nc1)N1CCC(Nc2ncc(C(F)(F)F)c(O[C@H]3CCOC3)n2)CC1 [Compound 153] , no commentary.
OUT: 0.5 to 2.5 nM

IN: Identify IC50 associated with the compound Cn1cc(S(=O)(=O)N2CCC(Nc3ncc(C#N)c(N[C@H]4C[C@@H](O)C4)n3)CC2)cn1 [Compound 77]
OUT: 10 to 50 nM

* * *

# measured target: CDK4 (Homo sapiens, UniProt P11802)
# Construct: purchased Carna Company
# experimental protocol: CDK enzymology experiment in vitro, capillary mobility shift assay (MSA)
# Format: biochemical
# experimental parameters: read-out: CDK4 (nM) inhibitory IC50
# From the text: CDK1/CDK2/CDK4/CDK6/CDK7/CDK9 were purchased from Carna Company; Carliper substrate CTD3/substrate 18/substrate 8 were purchased from Gil Biochemical Company; Dinaciclib/Palbociclib were purchased from Selleckchem Company; DMSO was purchased from Sigma Company; 384-well plates were purchased from Corning Company. […]
result type: IC50

1. Cn1cc(S(=O)(=O)N2CCC(Nc3ncc(C#N)c(N[C@@H]4CCC[C@H]4O)n3)CC2)cn1 10 to 50 nM
2. O=S(=O)(c1ccc(C2CCNCC2)cn1)N1CCC(Nc2ncc(C(F)(F)F)c(O[C@H]3CCOC3)n2)CC1 0.5 to 2.5 nM
3. CC(C)(O)c1ccc(S(=O)(=O)N2CCC(Nc3ncc(C#N)c(NC4CCCC4)n3)CC2)cc1 2.5 to 10 nM

IN: Give recorded IC50. `O=S(=O)(c1ccc(N2CC3CCC(C2)N3)cc1)N1CCC(Nc2ncc(C(F)(F)F)c(O[C@H]3CCOC3)n2)CC1`
OUT: 0.5 to 2.5 nM

IN: Recall and state the measured IC50 for `Cn1cc(S(=O)(=O)N2CCC(Nc3ncc(C#N)c(C=C4CCCC4)n3)CC2)cn1` .
OUT: 10 to 50 nM

IN: Entry `Cn1cc(S(=O)(=O)N2CCC(Nc3ncc(C(F)(F)F)c(NC4CCCC4)n3)CC2)cn1` needs its IC50 filled in; supply it.
OUT: 10 to 50 nM

IN: Report IC50, nothing else, for this molecule: `O=S(=O)(c1ccc(C2=CCNCC2)cc1)N1CCC(Nc2ncc(C(F)(F)F)c(O[C@H]3CCOC3)n2)CC1`
OUT: 0.5 to 2.5 nM

IN: Item `N#Cc1cnc(NC2CCN(S(=O)(=O)c3ccc(C4=CCNCC4)cc3)CC2)nc1NC1CCCC1` : provide IC50
OUT: 0.5 to 2.5 nM

IN: Tell me measured IC50 for `Cn1cc(S(=O)(=O)N2CCC(Nc3cc(N[C@H]4CCOC4)c(C#N)cn3)CC2)cn1` please.
OUT: 50 to 100 nM

IN: Tell us which IC50 value is on record for `Cn1cc(S(=O)(=O)N2CCC(Nc3ncc(C#N)c(SC4CCCC4)n3)CC2)cn1`
OUT: 2.5 to 10 nM
